# Tested Target: human FPR2 (Homo sapiens (Human))
# Assay Text: FPR2 cyclic adenosine monophosphate (cAMP) assay
# Condition Label: CHO cells overexpressing human FPR2; forskolin 5 µM; inhibition of cAMP production; read-out: hFPR2 cAMP2 EC50
Measured Metric: EC50 (nM)

Examples with answers:
{"columns": ["Compound", "Tested Target", "EC50, nM"],
 "data": [
  ["COc1ccc([C@@H]2CN(c3c(C)ccn(CCO)c3=O)C(=O)[C@H]2NC(=O)c2ccc(OC(F)(F)F)cc2)c(F)c1 [Example 375]", "human FPR2 (Homo sapiens (Human))", 1.6],
  ["CCn1cccc(N2C[C@@H](c3ccc(OC)cc3F)[C@H](NC(=O)c3ccc(OC(F)(F)F)cc3)C2=O)c1=O [Example 82]", "human FPR2 (Homo sapiens (Human))", 2.2],
  ["COc1cc(F)c([C@@H]2CN(c3c(C)ccn(CC(C)O)c3=O)C(=O)[C@H]2NC(=O)c2ccc(Cl)cc2)c(F)c1 (stereo partly drawn) [Example 362]", "human FPR2 (Homo sapiens (Human))", 0.1],
  ["COc1cc(F)c([C@@H]2CN(c3cc(NC(C)=O)cn(C)c3=O)C(=O)[C@H]2NC(=O)c2ccc(OC(F)F)cc2)c(F)c1", "human FPR2 (Homo sapiens (Human))", 11]
]}

1 = COc1cc(F)c([C@@H]2CN(c3ncccc3P(C)(C)=O)C(=O)[C@H]2NC(=O)c2ccc(OC(F)(F)F)cc2)c(F)c1
2 = COc1cc(F)c([C@@H]2CN(c3cccn(CC(F)(F)F)c3=O)C(=O)[C@H]2NC(=O)c2ccc(OC(F)(F)F)cc2)c(F)c1
Which value of EC50 is numerically greater: that of 1 or that of 2 ? Label of pick, please.
1
(1: 13 nM, 2: 5 nM)

---

# Tested Target: human FPR2 (Homo sapiens (Human))
# Assay Text: FPR2 cyclic adenosine monophosphate (cAMP) assay
# Condition Label: CHO cells overexpressing human FPR2; forskolin 5 µM; inhibition of cAMP production; read-out: hFPR2 cAMP2 EC50
pEC50: −log10 of the molar value.
Measured Metric: pEC50

{"columns": ["Molecule", "Tested Target", "Experimental Value"],
 "data": [
  ["CNc1ccnc(N2C[C@@H](c3c(F)cc(OC)cc3F)[C@H](NC(=O)c3ccc(OC(F)F)cc3)C2=O)c1C(F)(F)F", "human FPR2 (Homo sapiens (Human))", 8.12]
]}

a = COc1cc(F)c([C@@H]2CN(c3cccc(C4CCCNC4)n3)C(=O)[C@H]2NC(=O)c2ccc(OC(F)F)cc2)c(F)c1 (stereo partly drawn) [Example 718]
b = COc1ccc([C@@H]2CN(c3c(C)ccn(C(F)F)c3=O)C(=O)[C@H]2NC(=O)c2ccc(OC(F)F)cc2)cc1
Decide: a or b , by lowest recorded pEC50. Label of pick, please.
b
(b: 8.72, a: 9.05)

---

# Tested Target: human FPR2 (Homo sapiens (Human), UniProt P25090)
# Sequence (P25090 whole entry): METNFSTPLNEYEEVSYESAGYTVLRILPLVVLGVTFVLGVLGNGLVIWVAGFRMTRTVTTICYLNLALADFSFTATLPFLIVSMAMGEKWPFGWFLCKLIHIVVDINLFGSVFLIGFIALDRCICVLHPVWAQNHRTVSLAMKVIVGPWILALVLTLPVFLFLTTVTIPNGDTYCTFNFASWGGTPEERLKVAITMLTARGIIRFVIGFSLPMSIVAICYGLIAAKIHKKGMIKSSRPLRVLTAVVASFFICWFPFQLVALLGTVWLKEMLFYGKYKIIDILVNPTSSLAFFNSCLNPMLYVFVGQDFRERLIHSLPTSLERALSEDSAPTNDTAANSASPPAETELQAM
# Assay Text: FPR2 cyclic adenosine monophosphate (cAMP) assay
# Condition Label: CHO cells overexpressing human FPR2; forskolin 5 µM; inhibition of cAMP production; read-out: hFPR2 cAMP2 EC50
Measured Metric: EC50 (nM)

Examples with answers:
{"columns": ["Molecule", "Tested Target", "EC50 / nM"],
 "data": [
  ["COc1cc(F)c([C@@H]2CN(c3cccn4c(C)nnc34)C(=O)[C@H]2NC(=O)c2ccc(OC(F)(F)F)cc2)c(F)c1", "human FPR2 (Homo sapiens (Human), UniProt P25090)", 0.5],
  ["COc1cc(F)c([C@@H]2CN(c3nc(N4CC(C)OCC4=O)ccc3F)C(=O)[C@H]2NC(=O)c2ccc(OC(F)F)cc2)c(F)c1 (stereo partly drawn)", "human FPR2 (Homo sapiens (Human), UniProt P25090)", 5.7]
]}

1 = COCC(C(=O)N(C)C)n1ccc(C)c(N2C[C@@H](c3c(F)cc(OC)cc3F)[C@H](NC(=O)c3ccc(OC(F)(F)F)cc3)C2=O)c1=O (stereo partly drawn)
2 = COc1cc(F)c([C@@H]2CN(c3c4c(cn(CCO)c3=O)CCCC4)C(=O)[C@H]2NC(=O)c2ccc(OC(F)F)cc2)c(F)c1
Decide: 1 or 2 , by lowest recorded EC50. Label of pick, please.
1
(1: 6.9 nM, 2: 16 nM)

---

# Tested Target: human FPR1 (Homo sapiens (Human))
# Sequence (P21462 whole entry): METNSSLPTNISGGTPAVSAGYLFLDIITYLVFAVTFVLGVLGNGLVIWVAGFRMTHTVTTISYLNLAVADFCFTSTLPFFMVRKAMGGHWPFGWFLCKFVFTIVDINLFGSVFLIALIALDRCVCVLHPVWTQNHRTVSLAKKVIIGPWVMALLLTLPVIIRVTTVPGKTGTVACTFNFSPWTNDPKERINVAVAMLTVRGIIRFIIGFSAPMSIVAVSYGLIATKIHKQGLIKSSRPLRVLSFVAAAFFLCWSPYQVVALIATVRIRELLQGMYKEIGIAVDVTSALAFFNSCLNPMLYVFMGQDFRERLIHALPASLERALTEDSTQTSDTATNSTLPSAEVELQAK
# Assay Text: FPR1 cyclic adenosine monophosphate (cAMP) assay
# Condition Label: CHO cells overexpressing human FPR1; forskolin 10 µM; inhibition of cAMP production; read-out: hFPR1 cAMP EC50
pEC50: −log10 of the molar value.
Measured Metric: pEC50

{"columns": ["Molecule", "Tested Target", "pEC50"],
 "data": [
  ["COc1cc(F)c([C@H]2[C@H](NC(=O)c3ccc(OC(F)F)cc3)C(=O)N(c3cncn(CC(F)F)c3=O)[C@H]2C)c(F)c1", "human FPR1 (Homo sapiens (Human))", 6.28],
  ["COc1ccc([C@@H]2CN(c3c(C)ccn(CC4CC4)c3=O)C(=O)[C@H]2NC(=O)c2ccc(OC(F)(F)F)cc2)cc1", "human FPR1 (Homo sapiens (Human))", 10.18],
  ["COc1cc(F)c([C@@H]2CN(c3cncn(CCC(F)(F)F)c3=O)C(=O)[C@H]2NC(=O)c2ccc(OC(F)F)cc2)c(F)c1", "human FPR1 (Homo sapiens (Human))", 6.14],
  ["COc1cc(F)c([C@@H]2CN(c3nc(C4CCOCC4)ccc3F)C(=O)[C@H]2NC(=O)c2ccc(OC(F)F)cc2)c(F)c1", "human FPR1 (Homo sapiens (Human))", 7.02],
  ["COCCn1ccc(C)c(N2C[C@@H](c3ccc(Cl)cc3)[C@H](NC(=O)c3ccc(OC(F)(F)F)cc3)C2=O)c1=O", "human FPR1 (Homo sapiens (Human))", 9.22],
  ["COc1cc(F)c([C@@H]2CN(c3cncn(C4CCN(C)C4)c3=O)C(=O)[C@H]2NC(=O)c2ccc(Cl)cc2)c(F)c1 (stereo partly shown) [Example 514]", "human FPR1 (Homo sapiens (Human))", 6.57]
]}

P = COc1cc(F)c([C@@H]2CN(c3c(C)c4c(n(CCO)c3=O)CCC4)C(=O)[C@H]2NC(=O)c2ccc(Cl)cc2)c(F)c1
Q = COc1cc(F)c([C@@H]2CN(c3nc(N4CC(C)OCC4=O)ccc3F)C(=O)[C@H]2NC(=O)c2ccc(OC(F)F)cc2)c(F)c1 (stereo partly shown)
Which value of pEC50 is numerically greater: that of P or that of Q ? Label of pick, please.
P
(P: 7.40, Q: 6.57)

---

# Tested Target: human FPR1 (Homo sapiens (Human))
# Assay Text: FPR1 cyclic adenosine monophosphate (cAMP) assay
# Condition Label: CHO cells overexpressing human FPR1; forskolin 10 µM; inhibition of cAMP production; read-out: hFPR1 cAMP EC50
pEC50: −log10 of the molar value.
Measured Metric: pEC50

Examples with answers:
{"columns": ["Compound", "Tested Target", "pEC50"],
 "data": [
  ["COc1cc(F)c([C@@H]2CN(c3cccn(C(F)F)c3=O)C(=O)[C@H]2NC(=O)c2ccc(OC(F)F)cc2)c(F)c1 [Example 52]", "human FPR1 (Homo sapiens (Human))", 7.57],
  ["CNc1ccnc(N2C[C@@H](c3c(F)cc(OC)cc3F)[C@H](NC(=O)c3ccc(OC(F)F)cc3)C2=O)c1C(F)(F)F [Example 261]", "human FPR1 (Homo sapiens (Human))", 6.03],
  ["COc1cc(F)c([C@@H]2CN(c3ccnn(CC(O)C(F)(F)F)c3=O)C(=O)[C@H]2NC(=O)c2ccc(OC(F)(F)F)cc2)c(F)c1 (stereo partly drawn) [Example 466]", "human FPR1 (Homo sapiens (Human))", 8.40]
]}

I = COCCn1cccc(N2C(=O)[C@@H](NC(=O)c3ccc(Cl)cc3)[C@H](c3c(F)cc(OC)cc3F)[C@H]2C)c1=O [Example 220]
II = COc1cc(F)c([C@@H]2CN(c3nc(N4C[C@@H](C)N(C)[C@@H](C)C4)ccc3OC)C(=O)[C@H]2NC(=O)c2ccc(Cl)cc2)c(F)c1 [Example 284]
Decide: I or II , by lowest recorded pEC50. Label of pick, please.
I
(I: 6.00, II: 6.24)

---

# Tested Target: human FPR2 (Homo sapiens (Human), UniProt P25090)
# Assay Text: FPR2 cyclic adenosine monophosphate (cAMP) assay
# Condition Label: CHO cells overexpressing human FPR2; forskolin 5 µM; inhibition of cAMP production; read-out: hFPR2 cAMP2 EC50
pEC50: −log10 of the molar value.
Measured Metric: pEC50

Examples with answers:
{"columns": ["Compound", "Experimental Value"],
 "data": [
  ["COc1cc(F)c([C@@H]2CN(c3ncccc3C#N)C(=O)[C@H]2NC(=O)c2ccc(OC(F)(F)F)cc2)c(F)c1 [Example 15]", 7.66],
  ["COc1cc(CO)nc(N2C[C@@H](c3c(F)cc(OC)cc3F)[C@H](NC(=O)c3ccc(OC(F)F)cc3)C2=O)c1 [Example 586]", 8.01],
  ["COc1cc(F)c([C@@H]2CN(c3ccnc(N4C[C@@H](C)N(C)[C@@H](C)C4)c3C(F)(F)F)C(=O)[C@H]2NC(=O)c2ccc(OC(F)F)cc2)c(F)c1 [Example 152]", 8.41],
  ["COc1cc(F)c([C@@H]2CN(c3c(F)cccc3C#N)C(=O)[C@H]2NC(=O)c2ccc(Cl)cc2)c(F)c1 [Example 341]", 7.64],
  ["COCC(CO)n1ccc(C)c(N2C[C@@H](c3ccc(OC)cc3)[C@H](NC(=O)c3ccc(OC(F)(F)F)cc3)C2=O)c1=O (stereo partly shown) [Example 449]", 8.46],
  ["COCC(CO)n1cccc(N2C(=O)[C@@H](NC(=O)c3ccc(OC(F)F)cc3)[C@H](c3c(F)cc(OC)cc3F)[C@@H]2C)c1=O (stereo partly shown) [Example 217]", 8.24],
  ["COc1cc(F)c([C@@H]2CN(c3cccn4cc(C(C)C)nc34)C(=O)[C@H]2NC(=O)c2ccc(Cl)cc2)c(F)c1 [Example 496]", 8.52],
  ["COc1cc(F)c([C@@H]2CN(c3ccc(F)c(N4C[C@@H]5C[C@H]4CN5C)n3)C(=O)[C@H]2NC(=O)c2ccc(OC(F)F)cc2)c(F)c1 [Example 569]", 8.92],
  ["COc1cc(F)c([C@@H]2CN(c3c(C)ccn(CC4CCO4)c3=O)C(=O)[C@H]2NC(=O)c2ccc(OC(F)(F)F)cc2)c(F)c1 (stereo partly shown) [Example 615]", 8.06],
  ["COCC(C(=O)N1CCCC1)n1cccc(N2C[C@@H](c3ccc(OC)cc3)[C@H](NC(=O)c3ccc(OC(F)F)cc3)C2=O)c1=O (stereo partly shown) [Example 444]", 8.74]
]}

A = COc1cc(F)c([C@@H]2CN(c3nc(C)ccc3F)C(=O)[C@H]2NC(=O)c2ccc(Cl)cc2)c(F)c1 [Example 111]
B = COc1cc(F)c([C@@H]2CN(c3nc(N4C(=O)CC[C@H]4CO)ccc3F)C(=O)[C@H]2NC(=O)c2ccc(OC(F)(F)F)cc2)c(F)c1 [Example 246]
Which value of pEC50 is numerically greater: that of A or that of B ? Label of pick, please.
A

P = COc1cc(F)c([C@@H]2CN(c3c(C)ccn(CC#N)c3=O)C(=O)[C@H]2NC(=O)c2ccc(OC(F)(F)F)cc2)c(F)c1 [Example 455]
Q = COc1cc(F)c([C@@H]2CN(c3cc(Cl)cc(C(F)(F)F)c3)C(=O)[C@H]2NC(=O)c2ccc(OC(F)F)cc2)c(F)c1 [Example 12]
Which value of pEC50 is numerically greater: that of P or that of Q ? Label of pick, please.
P

I = COc1cc(F)c([C@H]2[C@H](NC(=O)c3ccc(OC(F)F)cc3)C(=O)N(c3cccc(N4CC[C@@H](O)C4)n3)[C@H]2C)c(F)c1 [Example 561]
II = COCC(CN)n1cccc(N2C[C@@H](c3c(F)cc(OC)cc3F)[C@H](NC(=O)c3ccc(OC(F)F)cc3)C2=O)c1=O (stereo partly shown) [Example 41]
Decide: I or II , by lowest recorded pEC50. Label of pick, please.
I
